- tgt: Human TREX1 enzyme (amino acids 1-242) (Homo sapiens)
- Sequence (Q9NSU2 1-242): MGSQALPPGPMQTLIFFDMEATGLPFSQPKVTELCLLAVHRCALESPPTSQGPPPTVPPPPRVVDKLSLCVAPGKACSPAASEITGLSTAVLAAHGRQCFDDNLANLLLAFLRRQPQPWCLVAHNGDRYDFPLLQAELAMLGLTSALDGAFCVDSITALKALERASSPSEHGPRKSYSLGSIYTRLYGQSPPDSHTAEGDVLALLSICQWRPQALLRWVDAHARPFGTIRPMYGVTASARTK
reported.property: IC50

{"molecule": "COc1cc(-c2nc3cc(NC(=O)c4cccnc4)ccc3n2C2(C)COC2)c(F)c(O)c1O", "endpoint.result": "0.1 to 1 µM"}
{"molecule": "COc1cc(-c2nc3c(N4CCOCC4)nccc3[nH]2)cc(O)c1O", "endpoint.result": "> 100 µM"}
{"molecule": "COc1cc(-c2nc3cc(N4CCN(C(=O)c5ccccc5C(=O)O)CC4)ccc3[nH]2)cc(O)c1O", "endpoint.result": "10 to 100 µM"}
{"molecule": "COc1cc(-c2nc3cc(N4CCN(C(=O)c5cccc(C(=O)O)c5)CC4)ccc3[nH]2)cc(O)c1O", "endpoint.result": "10 to 100 µM"}
{"molecule": "COc1cc(-c2nc3cc(S(=O)(=O)Nc4ccccc4)ccc3[nH]2)cc(O)c1O", "endpoint.result": "> 100 µM"}
{"molecule": "COc1cc(-c2nc3cc(N4CCC4)ccc3n2C2COC2)c(C)c(O)c1O", "endpoint.result": "1 to 10 µM"}
{"molecule": "COc1cc(-c2nc3ccc(N4CCC4)cc3n2C2COC2)c(C)c(O)c1O", "endpoint.result": "1 to 10 µM"}
{"molecule": "COc1cc(-c2nc3ccccc3n2C2CCOC2)cc(O)c1O (centres unmarked)", "endpoint.result": "10 to 100 µM"}
{"molecule": "COc1cc(-c2nc3ccccc3n2-c2ccccc2)c(F)c(O)c1O", "endpoint.result": "1 to 10 µM"}
{"molecule": "COc1cc(-c2nc3ccccc3n2C2(C)COC2)c(C#N)c(O)c1O", "endpoint.result": "10 to 100 µM"}
{"molecule": "O=C(O)c1c(O)cc(-c2nc3ccncc3[nH]2)cc1F", "endpoint.result": "10 to 100 µM"}
{"molecule": "COc1cc(-c2nc3ccc(-c4ncc(F)cn4)cc3n2C2(C)COC2)c(F)c(O)c1O", "endpoint.result": "≤ 0.1 µM"}
{"molecule": "COc1cc(-c2nc3ccc(N4CCN(C)CC4)cc3n2C)cc(O)c1O", "endpoint.result": "> 100 µM"}
{"molecule": "COc1cc(-c2nc3cc(N)ccc3n2C2CCC2)c(C)c(O)c1O", "endpoint.result": "0.1 to 1 µM"}
{"molecule": "COc1cc(-c2nc3cc(NC(=O)c4cnoc4)ccc3n2C2(C)COC2)c(F)c(O)c1O", "endpoint.result": "0.1 to 1 µM"}
{"molecule": "COc1cc(-c2nc3ccccc3n2C2CCC2)c(F)c(O)c1O", "endpoint.result": "1 to 10 µM"}
{"molecule": "COc1cc(-c2nc3ccccc3n2C2COC2)c(F)c(O)c1O", "endpoint.result": "1 to 10 µM"}
{"molecule": "COc1cc(-c2nc3cc(N4CCC4)ccc3n2C2CCOC2)cc(C(=O)O)c1O (centres unmarked)", "endpoint.result": "10 to 100 µM"}
{"molecule": "COCCN1CCN(c2ccc3[nH]c(-c4cc(O)c(O)c(OC)c4)nc3c2)CC1", "endpoint.result": "> 100 µM"}
{"molecule": "CNS(=O)(=O)c1ccc2nc(-c3cc(OC)c(O)c(O)c3F)n(C3(C)COC3)c2c1", "endpoint.result": "10 to 100 µM"}
{"molecule": "COc1cc(-c2nc3cc(N4CC(NS(C)(=O)=O)C4)ccc3[nH]2)cc(O)c1O", "endpoint.result": "1 to 10 µM"}
{"molecule": "COc1cc(-c2nc3ccccc3n2C)cc(O)c1O", "endpoint.result": "> 100 µM"}
{"molecule": "COc1cc(-c2nc3ccc(N4CCOCC4)cc3n2C)cc(O)c1O", "endpoint.result": "10 to 100 µM"}
{"molecule": "COc1cc(-c2nc3cc(N4CCN(C(=O)c5ccc(C(F)(F)F)cc5)CC4)ccc3[nH]2)cc(O)c1O", "endpoint.result": "> 100 µM"}
{"molecule": "O=C(O)c1ccc(-c2nc3ccccc3n2C2COC2)cc1O", "endpoint.result": "> 100 µM"}
{"molecule": "O=C(O)c1ccc(-c2nc3ccncc3[nH]2)c(F)c1O", "endpoint.result": "> 100 µM"}
{"molecule": "COc1cc(-c2nc3ccc(C(=O)NC4CNC4)cc3n2C2(C)COC2)c(F)c(O)c1O", "endpoint.result": "≤ 0.1 µM"}
{"molecule": "COc1cc(-c2nc3cc(N4CCN(C(=O)CCCCN)CC4)ccc3n2COCC[Si](C)(C)C)cc(O)c1O", "endpoint.result": "10 to 100 µM"}
{"molecule": "COc1cc(-c2nc3cc(N4CCOCC4)ncc3[nH]2)cc(O)c1O", "endpoint.result": "> 100 µM"}
{"molecule": "COc1cc(-c2nc3ccc(N4CCC4)cc3n2C2CCOC2)cc(C(=O)O)c1O (centres unmarked)", "endpoint.result": "10 to 100 µM"}
{"molecule": "COc1cc(-c2nc3cc(N4CCN(C(=O)c5ccc6ccccc6c5)CC4)ccc3[nH]2)cc(O)c1O", "endpoint.result": "> 100 µM"}
{"molecule": "COc1cc(-c2nc3cc(S(=O)(=O)Nc4ccccc4)ccc3n2C2COC2)cc(O)c1O", "endpoint.result": "10 to 100 µM"}
{"molecule": "O=C(O)c1ccc(-c2nc3ccncc3[nH]2)cc1O", "endpoint.result": "10 to 100 µM"}
{"molecule": "COc1cc(-c2nc3cc(N4CCCC4=O)ccc3n2C2(C)COC2)c(F)c(O)c1O", "endpoint.result": "0.1 to 1 µM"}
{"molecule": "COc1cc(-c2nc3ccc(-c4ncno4)cc3n2C2(C)COC2)c(F)c(O)c1O", "endpoint.result": "≤ 0.1 µM"}
